Every entry's value here was drawn from paper PMC8418346.

Molecular target: AADC (aromatic L-amino acid decarboxylase), recombinant (Homo sapiens, UniProt P20711, C100S)
Construct: recombinant AADC produced in vitro; native homodimer
Sequence (P20711 whole entry C100S): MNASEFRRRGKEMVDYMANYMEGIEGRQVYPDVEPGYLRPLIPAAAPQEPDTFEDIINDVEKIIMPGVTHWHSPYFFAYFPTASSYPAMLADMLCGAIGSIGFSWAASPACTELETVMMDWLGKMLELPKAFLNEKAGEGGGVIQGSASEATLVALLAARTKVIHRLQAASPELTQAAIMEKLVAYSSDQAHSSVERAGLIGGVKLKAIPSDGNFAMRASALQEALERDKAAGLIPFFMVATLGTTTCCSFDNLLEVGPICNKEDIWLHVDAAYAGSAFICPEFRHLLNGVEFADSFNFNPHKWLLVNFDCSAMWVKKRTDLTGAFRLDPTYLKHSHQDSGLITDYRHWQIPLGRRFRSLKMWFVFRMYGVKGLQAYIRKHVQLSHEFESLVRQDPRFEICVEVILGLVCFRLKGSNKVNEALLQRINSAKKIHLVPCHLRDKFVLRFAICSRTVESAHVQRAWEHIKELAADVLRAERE
Test: PLP binding affinity of recombinant AADC (method in supplement)
pKd: −log10 of the molar value.
VALUE TYPE: pKd

[
  {
    "INPUT SMILES": "Cc1ncc(COP(=O)(O)O)c(C=O)c1O",
    "VALUE TYPE": "pKd",
    "QUANTITATIVE RESULT": 6.95
  }
]
